- System: T1, 4H2907-AA
- T1 chain: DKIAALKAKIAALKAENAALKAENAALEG
- Assay text: two-hybrid library CCmax;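 further: natural log of median RNA to DNA barcode read ratio; higher means stronger binding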
- Test conditions: mean of both orientations
For each record, write down the corresponding interaction score.
Lab note: jot the number down without any unit.

// returns reported interaction score for input DENAALKAKIAALKAENAALEAEIAALKG [4H1874-AA] -1.61

Could you share which interaction score value was measured for DENAALKAEIAALKAENAALKAKIAALEG [4H1629-AA] ? -1.89

Please report the recorded interaction score for DENAALKAEIAALEAKNAALKAEIAALKG [4H1594-AA] . -1.36
